details: in isobutyl acetate, 283.15 K
reported-endpoint: solubility (mole fraction)
Respond numerically, and do not add a unit to the figure.

# input Record request: solubility (mole fraction) value, item CC(=O)O[C@]1(C(C)=O)CC[C@H]2[C@@H]3C[C@H](C)C4=CC(=O)CC[C@]4(C)[C@H]3CC[C@@]21C
# output 0.00334

====

details: in acetone, 283.15 K
reported-endpoint: solubility (mole fraction)

# input Record request: solubility (mole fraction) value, item CC(=O)O[C@]1(C(C)=O)CC[C@H]2[C@@H]3C[C@H](C)C4=CC(=O)CC[C@]4(C)[C@H]3CC[C@@]21C
# output 0.00547

====

details: in isopropanol, 278.15 K
reported-endpoint: solubility (mole fraction)
Respond numerically, and do not add a unit to the figure.

# input Record request: solubility (mole fraction) value, item CC(=O)O[C@]1(C(C)=O)CC[C@H]2[C@@H]3C[C@H](C)C4=CC(=O)CC[C@]4(C)[C@H]3CC[C@@]21C
# output 0.000451

====

conditions: in acetonitrile, 318.15 K
reported-endpoint: solubility (mole fraction)

# input Record request: solubility (mole fraction) value, item CC(=O)O[C@]1(C(C)=O)CC[C@H]2[C@@H]3C[C@H](C)C4=CC(=O)CC[C@]4(C)[C@H]3CC[C@@]21C
# output 0.0109

====

settings: in acetone, 308.15 K
reported-endpoint: solubility (mole fraction)
Respond numerically, and do not add a unit to the figure.

# input Record request: solubility (mole fraction) value, item CC(=O)O[C@]1(C(C)=O)CC[C@H]2[C@@H]3C[C@H](C)C4=CC(=O)CC[C@]4(C)[C@H]3CC[C@@]21C
# output 0.0112

====

conditions: in ethanol, 313.15 K
reported-endpoint: solubility (mole fraction)
Respond numerically, and do not add a unit to the figure.

# input Record request: solubility (mole fraction) value, item CC(=O)O[C@]1(C(C)=O)CC[C@H]2[C@@H]3C[C@H](C)C4=CC(=O)CC[C@]4(C)[C@H]3CC[C@@]21C
# output 0.00267

====

conditions: in ethanol, 323.15 K
reported-endpoint: solubility (mole fraction)
Respond numerically, and do not add a unit to the figure.

# input Record request: solubility (mole fraction) value, item CC(=O)O[C@]1(C(C)=O)CC[C@H]2[C@@H]3C[C@H](C)C4=CC(=O)CC[C@]4(C)[C@H]3CC[C@@]21C
# output 0.0043

====

conditions: in ethyl acetate, 288.15 K
reported-endpoint: solubility (mole fraction)
Respond numerically, and do not add a unit to the figure.

# input Record request: solubility (mole fraction) value, item CC(=O)O[C@]1(C(C)=O)CC[C@H]2[C@@H]3C[C@H](C)C4=CC(=O)CC[C@]4(C)[C@H]3CC[C@@]21C
# output 0.00446

====

conditions: in acetonitrile, 308.15 K
reported-endpoint: solubility (mole fraction)
Respond numerically, and do not add a unit to the figure.

# input Record request: solubility (mole fraction) value, item CC(=O)O[C@]1(C(C)=O)CC[C@H]2[C@@H]3C[C@H](C)C4=CC(=O)CC[C@]4(C)[C@H]3CC[C@@]21C
# output 0.00785

====

conditions: in methanol, 298.15 K
reported-endpoint: solubility (mole fraction)

# input Record request: solubility (mole fraction) value, item CC(=O)O[C@]1(C(C)=O)CC[C@H]2[C@@H]3C[C@H](C)C4=CC(=O)CC[C@]4(C)[C@H]3CC[C@@]21C
# output 0.00135
